tested-system: 5-hydroxytryptamine receptor 1D (Homo sapiens)
Sequence (P28221 whole entry): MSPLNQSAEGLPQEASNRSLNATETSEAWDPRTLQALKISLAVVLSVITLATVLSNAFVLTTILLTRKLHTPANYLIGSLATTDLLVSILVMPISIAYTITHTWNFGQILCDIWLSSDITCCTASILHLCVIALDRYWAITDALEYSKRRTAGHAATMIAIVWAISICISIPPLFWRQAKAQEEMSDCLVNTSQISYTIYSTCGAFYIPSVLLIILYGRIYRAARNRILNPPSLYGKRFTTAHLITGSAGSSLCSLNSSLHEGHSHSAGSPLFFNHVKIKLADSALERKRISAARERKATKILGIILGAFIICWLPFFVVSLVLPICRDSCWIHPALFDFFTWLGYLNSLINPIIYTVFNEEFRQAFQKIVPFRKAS
test: Binding affinity to 5-HT1D receptor (unknown origin) assessed as inhibition constant
recorded-metric: Ki (nM)
Use nM as the unit, but write only the number.

Challenge: Would you mind telling me what Ki value was observed for `COc1ccccc1N1CCN(CC[C@@H](C(=O)N2CCCCCC2)c2ccccc2)CC1` ?
Response given: 9.5

----------
tested-system: UniProt:P41595
Sequence (P41595 whole entry): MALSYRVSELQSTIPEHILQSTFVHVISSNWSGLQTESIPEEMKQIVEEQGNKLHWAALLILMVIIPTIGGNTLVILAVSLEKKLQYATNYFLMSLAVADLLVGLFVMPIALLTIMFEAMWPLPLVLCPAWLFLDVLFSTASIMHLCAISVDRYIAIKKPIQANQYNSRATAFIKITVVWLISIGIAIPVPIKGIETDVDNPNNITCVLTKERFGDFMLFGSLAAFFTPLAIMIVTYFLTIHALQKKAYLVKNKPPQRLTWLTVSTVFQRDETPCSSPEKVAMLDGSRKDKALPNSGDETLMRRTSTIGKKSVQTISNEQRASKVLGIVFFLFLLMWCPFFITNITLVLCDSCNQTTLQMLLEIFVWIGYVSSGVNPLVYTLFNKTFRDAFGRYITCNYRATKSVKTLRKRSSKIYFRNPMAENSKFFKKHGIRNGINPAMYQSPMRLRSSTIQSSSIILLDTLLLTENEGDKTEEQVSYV
test: Displacement of [3H]-mesulergine from 5-HT2B (unknown origin) assessed as inhibition constant by radioligand competitive binding assay
recorded-metric: Ki

Challenge: Write down the reported Ki of `[11CH3]N1CCc2nc3ccnn3c(N3CCC3)c2CC1` , test system: UniProt:P41595.
Response given: > 1000 nM
